Just for reference, PubChem BioAssay (NCI) is where these values come from.

Test system: MDA-MB-231 breast
assay_overview: NCI tumour cell line growth inhibition, 48 h; in the data active means GI50 below about 0.43 µM; inactive means the rest
The reply should name one outcome from 1 for active, 0 for inactive

Query: What outcome does the record of this test show for `COc1cccc(-c2cc3c4c(nc5ccccc53)C(=O)c3cccnc3-c4n2)c1` ?
Response: 0

Query: Check the results log: what was the call for `N#Cc1nc2c(S(=O)(=O)c3ccc(Cl)cc3)c(N)n(CCCN3CCOCC3)c2nc1C#N` ?
Response: 0

Query: Field: outcome | Entry: `O=c1c(O)c(-c2ccc(O)c(O)c2)oc2cc(O)cc(O)c12`
Response: 0

Query: Fill in: this test's call for `Cc1ccc(-c2nc3nc(-c4ccccc4)nc(N4CCNCC4)c3o2)cc1` is ___
Response: 1

Query: Outcome? `CC(=O)[O][Sn]([CH2]c1ccccc1)([CH2]c1ccccc1)[CH2]c1ccccc1`
Response: 0

Query: Dear colleague, could you share the recorded outcome for `O1[As]2O[As]3O[As]1O[As](O2)O3` when you have a moment?
Response: 0

* * *

Test system: LOX IMVI melanoma
assay_overview: NCI tumour cell line growth inhibition, 48 h
For each entry below, report its TGI value.
Quick reminder: number only, in µM, skip the unit.

Query: I would be grateful if you could share the reported TGI for CN(C)CC1CCC2=C(C1=O)C(c1ccc(Cl)c(Cl)c1)C1=C(CCC(CN(C)C)C1=O)O2 (centres undefined) .
Response: 15.2

Query: Data request, read-out TGI, for `O=[N+]([O-])c1ccc(NNN=Nc2ccc(-c3nc4ccccc4s3)cc2)c([N+](=O)[O-])c1`
Response: 32.7

Query: For the compound `COc1ccc(/C=C(\C(=O)NCc2cccnc2)S(=O)(=O)c2ccccc2)cc1OC` , what TGI is on record?
Response: 11.8

Query: Give the measured TGI of `COc1cc(OC)c2[nH]c3c(O)c(-c4c(C)cc5c([nH]c6c(OC)cc(OC)cc65)c4O)c(C)cc3c2c1` .
Response: 14.6

* * *

System: MDA-MB-435
assay_overview: NCI tumour cell line growth inhibition, 48 h
Assign log10(TGI) to each entry below.
Log scale reminder: TGI in µM, then log10 taken.

Query: Can you share its log10(TGI)? I mean this compound: `CN(C)c1ccc(C(=NO)c2ccc(N(C)C)cc2)cc1`
Response: 0.28

Query: Return reported log10(TGI); argument: O=C1CC(NCc2ccccc2)c2c(Cl)sc(Cl)c21 (stereo unspecified)
Response: 1.93

Query: Reported log10(TGI), compound COc1ccccc1C1c2cc3c(cc2OC(N2CCOCC2)C1C)OCO3 (stereo unspecified) : ____
Response: 1.40

Query: Using the record for `C[C@]12CC[C@@H]3c4ccc(O)cc4CC[C@H]3[C@@H]1Cc1cnc(N)nc12` , report its log10(TGI).
Response: 1.64

Query: Consider the compound `COc1cccc(-c2cc3c4c(nc5ccccc53)C(=O)c3cccnc3-c4n2)c1` and give its measured log10(TGI).
Response: 0.41

Query: Fill in: log10(TGI) of `N#Cc1nc2c(S(=O)(=O)c3ccc(Cl)cc3)c(N)n(CCCN3CCOCC3)c2nc1C#N` is ___
Response: 0.76

* * *

Tested on: OVCAR-3 ovarian
assay_overview: NCI tumour cell line growth inhibition, 48 h
Classification field: 1 = TGI at or over 20 µM; 0 = TGI under 20 µM.

Query: State whether the measured TGI reaches 20 µM, counting equality as reaching it, for `COc1ccc(/C=C(\C(=O)NCc2cccnc2)S(=O)(=O)c2ccccc2)cc1OC`
Response: 0

Query: Form field: TGI at least 20 µM? Entry: `COc1cc(OC)c2[nH]c3c(O)c(-c4c(C)cc5c([nH]c6c(OC)cc(OC)cc65)c4O)c(C)cc3c2c1`
Response: 0

Query: TGI >= 20 µM for C[C@@H]1CC[C@@]2(OC1)O[C@H]1C[C@H]3[C@@H]4CC[C@H]5C[C@@H](OC6OC(CO)C(OC7OC(CO)C(O)C(OC8OCC(O)C(O)C8O)C7OC7OC(CO)C(O)C(O)C7O)C(O)C6O)[C@H](O)C[C@]5(C)[C@H]4CC[C@]3(C)[C@H]1[C@@H]2C (some centres undefined) ?
Response: 0

Query: Record `COc1cc(/C=C/C(=O)c2ccc(F)cc2)ccc1OCCCN1CCN(CC(=O)Nc2ccc(Cl)cc2C(=O)c2ccccc2Cl)CC1` ; criterion: TGI no lower than 20 µM. Met?
Response: 1

Query: Is TGI for `COc1cc([N+](=O)[O-])c(OC)cc1-c1nc2sccn2c1/C=N/N=C(N)N` at or above 20 µM?
Response: 1

Query: // inclusive: TGI at least 20 µM? input: `CCc1ccccc1NC(=O)/C(N=O)=C(/C)O`
Response: 1

Query: State whether the measured TGI reaches 20 µM, counting equality as reaching it, for `Cc1nn(-c2ccc([N+](=O)[O-])cc2)c2ncnc(N/N=C/c3ccccc3O)c12`
Response: 0

Query: For this compound, is measured TGI 20 µM or higher? `CC1(C)CC2CC(CC(C)(C)C2=O)C1=O`
Response: 1

Query: Is TGI for `Cc1ccc2c(/C=C/c3ccc(N(C)C)cc3)ccc(C(C)C)cc1-2` at or above 20 µM?
Response: 1

Query: Does CC(C)N(C(C)C)S(=O)(=O)C[C@]12CC[C@H](CC13OCC(CS(=O)(=O)c1ccccc1)O3)C2(C)C (some centres undefined) have a reported TGI of at least 20 µM?
Response: 1

Query: Threshold query (TGI >= 20 µM) on `COc1ccc(CC(=O)c2ccc(O)cc2O)cc1`
Response: 1

Query: Decide: is the reported value of TGI for `Cc1ccc(-c2nc3nc(-c4ccccc4)nc(N4CCNCC4)c3o2)cc1` equal to or greater than 20 µM?
Response: 0

Query: I'd appreciate it if you could say whether `CCOc1cc2c(c(OCC)c1O)CC[C@@H]1[C@@H]2CC[C@]2(C)[C@@H](O)CC[C@@H]12` has TGI at least equal to 20 µM.
Response: 0

Query: For this compound, is measured TGI 20 µM or higher? CC1(C)N=C(C2CCCN2C(=O)OCc2ccccc2)OC1=O (centres undefined)
Response: 1

Query: Given C[C@]12CCC(=O)CC1CCCC2=O (some centres undefined) , state whether its TGI is at least 20 µM.
Response: 1

Query: # check: TGI of `O=C(NNC(=O)c1csc(NC(=S)NC2CCCCC2)n1)c1ccccc1` is greater than or equal to 20 µM
Response: 0

Query: State whether the measured TGI reaches 20 µM, counting equality as reaching it, for CCOC1CC(C)N(C(=O)c2ccccc2)O1 (centres undefined)
Response: 1

Query: Reported TGI at or above 20 µM? CCC1NC(N=Nc2ccc([N+](=O)[O-])cc2)(P(=O)(OC(C)C)OC(C)C)OC1=O (centres undefined)
Response: 1

* * *

Assign TGI to each entry below.
Tested on: A498 renal
assay_overview: NCI tumour cell line growth inhibition, 48 h
Kindly answer with a numeric value in µM, unit omitted.

Query: Value wanted: TGI (A498 renal) of entry COC1=C(C)C(=O)c2c(cc3c(c2O)C(C)(CCC=C(C)C)C(C)O3)C1=O (stereo unspecified)
Response: 35

Query: Give recorded TGI with A498 renal for the following compound: COc1ccc(C2=CC(c3ccc(OC)cc3Br)N3C=CSC3=N2)cc1 (stereo unspecified)
Response: 32.5

Query: Record lookup: for A498 renal, what TGI belongs to `Oc1c(Cl)c(Cl)c(O)c2c1CCCC2` ?
Response: 33.1

Query: # value lookup — system A498 renal, readout TGI, item COC(=O)C12OC3CO[Si](C(C)C)(C(C)C)O[Si](C(C)C)(C(C)C)OC3C1Oc1nc(=O)ccn12 (stereo unspecified)
Response: 38.8

Query: What is its TGI for A498 renal? Entry: `O=CN1CCN(C(=O)c2ccc(Cl)c(Cl)c2)C1=S`
Response: 29.8

Query: API: value(readout=TGI, system=A498 renal) for record `Cc1ccc(-c2csc(NC(=O)N3CCN(c4cc5c(cc4F)c(=O)c(C(=O)O)cn5C4CC4)CC3)n2)cc1`
Response: 9.16

Query: Test system A498 renal; read-out TGI; what value for `CC[C@@]1(O)C(=O)OCc2c1cc1n(c2=O)Cc2c-1nc1ccccc1c2/C=N/NC(=O)c1ccc(N)cc1` ?
Response: 6.18

Query: Find the measured TGI: item CC1(C)[C@@H]2C[C@H]1c1cnc(-c3ccccn3)cc1C2CCCCC[C@@H]1c2cc(-c3ccccn3)ncc2[C@@H]2C[C@H]1C2(C)C (stereo partly specified) , target or system A498 renal.
Response: 8.92

* * *

Test system: RPMI-8226 leukemia
assay_overview: NCI tumour cell line growth inhibition, 48 h
property_measured: TGI

Query: Which TGI is reported for this compound? `Cc1[nH]c(=O)nc(NNCc2ccc(Cl)cc2)c1C(=O)Nc1ccc(Cl)cc1`
Response: > 100 µM

Query: TGI for `Cc1ccc(C(=O)N/N=C(\N=Nc2ccc(C(=O)O)cc2)c2ccc(N(CCC#N)CCC#N)cc2C)cc1` ?
Response: > 100 µM

Query: I am curious: what TGI value has been reported for `CCn1cnnc1-c1nsc2ccccc12` ?
Response: > 100 µM

Query: Given the compound CC1=C(CCC(C)NCc2ccc(OCCCN3CCCCC3)cc2)C(C)(C)CCC1 (configuration not stated) , what is its reported TGI?
Response: 5.36 µM

Query: Can you look up the measured TGI of `CCOc1cc2c(c(OCC)c1O)CC[C@@H]1[C@@H]2CC[C@]2(C)[C@@H](O)CC[C@@H]12` for me?
Response: 31.1 µM

Query: Can you share its TGI? I mean this compound: `Cc1ccc(N(C)S(=O)(=O)c2ccccc2[N+](=O)[O-])cc1`
Response: > 100 µM

Query: // query TGI value for entry COc1cccc(NC(=O)CC(=O)N2N=C(n3ccc4ccccc43)CC2c2ccccc2)c1 (configuration not stated)
Response: > 100 µM
